Molecular target: SARS-CoV-2 3CL^pro (Severe acute respiratory syndrome coronavirus 2, UniProt P0DTD1)
Experiment: Microscale thermophoresis
Type: binding
Conditions: Kd
PROPERTY NAME: Kd
Remember to quote the unit after the number.

// sample `Cc1c(O)cccc1C(=O)N[C@@H](CSc1ccccc1)[C@H](O)CN1C[C@H]2CCCC[C@H]2C[C@H]1C(=O)NC(C)(C)C` , its Kd was 91.6 µM
